property.label: melting point

The following compounds have reported results that may help.
INSERT INTO results (compound, property_label, experimental_result) VALUES
  ('O=C(Cn1c(-c2ccc(Br)cc2)nc2cccnc21)Nc1ccccc1Cl', 'melting point', '230 to 232 °C'),
  ('CN1CCC(c2c[nH]c3ccc(C(=O)c4ccc(F)cc4)cc23)CC1', 'melting point', '89 °C'),
  ('O=C(Nc1ccc2c(c1)CCOC2)OCc1ccccc1', 'melting point', '142 to 145 °C'),
  ('CCCCCOc1cc2c(cc1/C=C/c1ccc(C(=O)O)cc1)C(C)(C)CCC2(C)C', 'melting point', '148 to 149 °C'),
  ('COC(=O)c1ccc(CN2C(=O)C(CCOc3ccc(CCNC(=O)OC(C)(C)C)cc3)Oc3ccccc32)cc1 (stereo not given)', 'melting point', '110 to 112 °C'),
  ('O=c1cc(NCCCN2CCN(c3cccc4c3OCCO4)CC2)cn[nH]1', 'melting point', '158 to 160 °C');

Inquiry: May I ask what melting point has been recorded for "O=C1CCCc2cc(Sc3ccccc3)cc(F)c21" ?
Reply text: 112 to 113 °C

Inquiry: May I ask what melting point has been recorded for "Nc1nc(-c2ccc3ncccc3c2)c(-c2ccccn2)s1" ?
Reply text: 226 °C
